molecular target: opioidergic receptors μ (Mus musculus, UniProt P42866)
Sequence (P42866 whole entry): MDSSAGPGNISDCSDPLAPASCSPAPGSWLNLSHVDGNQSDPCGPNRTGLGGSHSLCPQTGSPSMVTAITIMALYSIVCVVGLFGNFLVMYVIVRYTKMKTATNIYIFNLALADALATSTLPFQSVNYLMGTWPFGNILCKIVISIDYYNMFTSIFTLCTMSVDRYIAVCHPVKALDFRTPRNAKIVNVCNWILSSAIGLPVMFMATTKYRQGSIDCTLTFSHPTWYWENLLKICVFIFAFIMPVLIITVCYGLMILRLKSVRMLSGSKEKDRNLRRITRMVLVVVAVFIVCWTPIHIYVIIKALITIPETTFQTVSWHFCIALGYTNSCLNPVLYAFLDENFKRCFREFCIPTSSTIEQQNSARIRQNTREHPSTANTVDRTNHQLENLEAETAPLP
pKi: −log10 of the molar value.
Would you please tag the item fulfilled when its pKi is 8 or above, and not fulfilled when it is below?

molecule="CCC(=O)N1CCC2CCCC(C1)N2C/C=C(\\C)c1ccc(Cl)c(Cl)c1 (centres unmarked)" assay_system="opioidergic receptors μ (Mus musculus, UniProt P42866)" classification=fulfilled
molecule="CCC(=O)N1C2CCCC1CN(C/C=C(\\C)c1ccc(Cl)c(Cl)c1)CC2 (centres unmarked)" assay_system="opioidergic receptors μ (Mus musculus, UniProt P42866)" classification="not fulfilled"
molecule="CCC(=O)N1C2CCCC1CN(CC=C(c1ccccc1)c1ccccc1)CC2 (centres unmarked)" assay_system="opioidergic receptors μ (Mus musculus, UniProt P42866)" classification="not fulfilled"
molecule="CCC(=O)N1CCC2CCCC(C1)N2CC=C(c1ccccc1)c1ccccc1 (centres unmarked)" assay_system="opioidergic receptors μ (Mus musculus, UniProt P42866)" classification=fulfilled

====

Listed here: compounds with reported pKi for UniProtKB P33534.
Sequence (P33534 whole entry): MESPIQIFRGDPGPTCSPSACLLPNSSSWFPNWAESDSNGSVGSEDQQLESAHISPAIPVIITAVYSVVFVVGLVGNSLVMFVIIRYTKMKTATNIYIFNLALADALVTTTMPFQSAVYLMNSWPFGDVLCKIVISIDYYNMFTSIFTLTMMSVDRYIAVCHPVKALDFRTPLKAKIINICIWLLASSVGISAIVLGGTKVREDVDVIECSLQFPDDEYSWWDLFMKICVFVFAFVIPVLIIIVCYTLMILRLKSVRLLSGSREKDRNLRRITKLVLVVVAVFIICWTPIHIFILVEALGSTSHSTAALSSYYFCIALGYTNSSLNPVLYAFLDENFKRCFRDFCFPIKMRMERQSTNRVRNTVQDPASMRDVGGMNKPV
pKi: −log10 of the molar value.
observed.property: pKi

compound="CCC(=O)N1C2CCCC1CN(CC=C(c1ccccc1)c1ccccc1)CC2 (stereo not drawn)" endpoint_value=5.71
compound="CCC(=O)N1C2CCC1CN(C/C=C(\\C)c1ccccc1)CC2 (stereo not drawn)" endpoint_value=6.05
compound="CCC(=O)N1C2CCCC1CN(C/C=C(\\C)c1ccccc1)CC2 (stereo not drawn)" endpoint_value=5.83
compound="CCC(=O)N1C2CCC1CN(CC=C(c1ccccc1)c1ccccc1)CC2 (stereo not drawn)" endpoint_value=5.95
compound="CCC(=O)N1C2CCCC1CN(C/C=C(\\C)c1ccc(Cl)c(Cl)c1)CC2 (stereo not drawn)" endpoint_value=5.93
compound="CCC(=O)N1CCC2CCCC(C1)N2C/C=C(\\C)c1ccc(Cl)c(Cl)c1 (stereo not drawn)" endpoint_value=6.37
compound="CCC(=O)N1C2CCC1CN(C/C=C(\\C)c1ccc(Cl)c(Cl)c1)CC2 (stereo not drawn)" endpoint_value=6.41
compound="CCC(=O)N1CCC2CCCC(C1)N2C/C=C(\\C)c1ccccc1 (stereo not drawn)" endpoint_value=6.39
compound="CCC(=O)N1CCC2CCC(C1)N2C/C=C(\\C)c1ccccc1 (stereo not drawn)" endpoint_value=7.26
compound="CCC(=O)N1CCC2CCC(C1)N2CC=C(c1ccccc1)c1ccccc1 (stereo not drawn)" endpoint_value=6.99
compound="CCC(=O)N1CCC2CCCC(C1)N2CC=C(c1ccccc1)c1ccccc1 (stereo not drawn)" endpoint_value=7.40
compound="CCC(=O)N1CCC2CCC(C1)N2C/C=C(\\C)c1ccc(Cl)c(Cl)c1 (stereo not drawn)" endpoint_value=7.00

====

observed.property: melting point

compound="CCC(=O)N1CCC2CCC(C1)N2C/C=C(\\C)c1ccc(Cl)c(Cl)c1 (stereo not drawn)" endpoint_value="188 to 189 °C"
compound="CCC(=O)N1C2CCCC1CN(CC=C(c1ccccc1)c1ccccc1)CC2 (stereo not drawn)" endpoint_value="169 to 170 °C"
compound="CCC(=O)N1CCC2CCC(C1)N2CC=C(c1ccccc1)c1ccccc1 (stereo not drawn)" endpoint_value="176 to 177 °C"
compound="CCC(=O)N1C2CCCC1CN(C/C=C(\\C)c1ccccc1)CC2 (stereo not drawn)" endpoint_value="144 to 146 °C"
compound="CCC(=O)N1C2CCC1CN(C/C=C(\\C)c1ccc(Cl)c(Cl)c1)CC2 (stereo not drawn)" endpoint_value="186 to 188 °C"
compound="CCC(=O)N1CCC2CCCC(C1)N2C/C=C(\\C)c1ccccc1 (stereo not drawn)" endpoint_value="106 to 108 °C"
compound="CCC(=O)N1C2CCC1CN(C/C=C(\\C)c1ccccc1)CC2 (stereo not drawn)" endpoint_value="228 to 230 °C"
compound="CCC(=O)N1CCC2CCC(C1)N2C/C=C(\\C)c1ccccc1 (stereo not drawn)" endpoint_value="230 to 232 °C"
compound="CCC(=O)N1CCC2CCCC(C1)N2CC=C(c1ccccc1)c1ccccc1 (stereo not drawn)" endpoint_value="137 to 139 °C"
compound="CCC(=O)N1C2CCCC1CN(C/C=C(\\C)c1ccc(Cl)c(Cl)c1)CC2 (stereo not drawn)" endpoint_value="175 to 176 °C"
compound="CCC(=O)N1C2CCC1CN(CC=C(c1ccccc1)c1ccccc1)CC2 (stereo not drawn)" endpoint_value="184 to 186 °C"
compound="CCC(=O)N1CCC2CCCC(C1)N2C/C=C(\\C)c1ccc(Cl)c(Cl)c1 (stereo not drawn)" endpoint_value="184 to 185 °C"
